Kd for assorted binders
Molecular target: T1, ActRIIB-Fc homodimer (human, UniProt Q13705 19-137)
T1 construct: extracellular domain; also called unmodified ActRIIB-Fc homodimer; ActRIIB-Fc:ActRIIB-Fc homodimer
T1 sequence (looked up): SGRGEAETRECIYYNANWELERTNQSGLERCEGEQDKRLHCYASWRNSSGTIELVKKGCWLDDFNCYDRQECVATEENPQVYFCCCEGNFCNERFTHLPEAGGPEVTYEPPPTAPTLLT
Assay: SPR (Biacore), anti-Fc capture, ligand in flow
Remember to follow the number with its unit.

[
  {
    "binder": "BMP9 (ligand, UniProt Q9UK05 320-429, looked up, also called GDF2) SAGAGSHCQKTSLRVNFEDIGWDSWIIAPKEYEAYECKGGCFFPLADDVTPTKHAIVQTLVHLKFPTKVGKACCVPTKLSPISVLYKDDMGVPTLKYHYEGMSVAECGCR",
    "Kd": "0.01 nM"
  },
  {
    "binder": "GDF3 (ligand, UniProt Q9NR23 251-364, looked up, also called VGR2) AAIPVPKLSCKNLCHRHQLFINFRDLGWHKWIIAPKGFMANYCHGECPFSLTISLNSSNYAFMQALMHAVDPEIPQAVCIPTKLSPISMLYQDNNDNVILRHYEDMVVDECGCG",
    "Kd": "1.5 nM"
  },
  {
    "binder": "BMP10 (ligand, UniProt O95393 317-424, looked up) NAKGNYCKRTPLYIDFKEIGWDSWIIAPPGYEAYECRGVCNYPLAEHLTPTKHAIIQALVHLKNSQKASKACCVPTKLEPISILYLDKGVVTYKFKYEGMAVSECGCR",
    "Kd": "0.025 nM"
  }
]

Value lookup for Kd; key = activin A (ligand, UniProt P08476 311-426, looked up) GLECDGKVNICCKKQFFVSFKDIGWNDWIIAPSGYHANYCEGECPSHIAGTSGSSLSFHSTVINHYRMRGHSPFANLKSCCVPTKLRPMSMLYYDDGQNIIKKDIQNMIVEECGCS
0.011 nM
